Value source: the supplement of paper PMC12764529

experiment.notes: folding stability dG unfold from trypsin proteolysis; higher = more stable
Quick reference: folding stability dG unfold of the listed items.
Report as a plain number; the unit kcal/mol is understood.

Example entries and their recorded answers appear below.
chain: SAGGSAGGSAGGSGSMVVEKVSPEPNVTKTIFFEPPEEGLVITVETLEGDTWSSQIILQSAGGSAGGSAGGS [r4_484_JUSTAS]
folding stability dG unfold, kcal/mol: 0.657
//
chain: SAGGSASIDELKEEILAKTPPDVVTTGYATSSDSLSTRTYSTPAGHRVVISYTDNEIKSVSLEKAGSAGGSA [r15_175_JUSTAS]
folding stability dG unfold, kcal/mol: 0.333
//
chain: SAGGSAGGSAGGEESRRVTVTETVYPVYPGVGIIRVTRTVTTPDATTTSTTLVFVPPGLPSAGGSAGGSAGG [r17_465_JUSTAS]
folding stability dG unfold, kcal/mol: -0.433
//
chain: SAGGSAGGSAGGMTITLEFTTEEEVEAYAKEIGATKVEVTREKTETPEERIKATIEKPGSAGGSAGGSAGGS [r10_494_JUSTAS]
folding stability dG unfold, kcal/mol: -0.365
//
chain: SAGGSAGGSAGGSDELLKELAQENGMKVTAEPMPEEGHFNIEVQSPNGKPIEIEIPLDDSAGGSAGGSAGGS [r4_121_TrROS]
folding stability dG unfold, kcal/mol: 0.128

sequence SAGGTPIGDGQTGESSTFDEEVTDPVTGEKVKVKVTIPVTIDPETGKTVRTVTITNPLEGKTTTTLTLSAGG [r13_262_JUSTAS] , folding stability dG unfold observed: -0.379

sequence SAGMTTETTEKTAPDGKTRTTTVTYPSEEKAADTTTVVVTETPVETDGSERILTTTTVYKNGVKVATTGSAG [r14_958_JUSTAS] , folding stability dG unfold observed: -0.851

---

Quick reference: folding stability dG unfold of the listed items.
experiment.notes: folding stability dG unfold (combined trypsin and chymotrypsin); higher = more stable
Report as a plain number; the unit kcal/mol is understood.

chain: SAGGSAGGSAGGKVLVRFPTGEVPEVVEIDVPFEAGDPEKAKEIADELLAKGAEEVVLEDSAGGSAGGSAGG [r11_196_TrMRF]
display.unit: kcal/mol
folding stability dG unfold: -0.328

sequence SAGSMEVKVEIPEEVLKKIESAPPGTVVEYTETVTITTTTTIPGPGNPVPLTSTTPSPIKLTYTKPSSPSAG [r5_946_JUSTAS] , folding stability dG unfold observed: -0.915

sequence SAGGSAGGSAMLKVTVKVPGTSKDYDFNVPESVGKEEAEKRLEEEYPGAEVTEIVEIPGEELSAGGSAGGSA [r18_242_JUSTAS] , folding stability dG unfold observed: -0.469

sequence SAGGSAGGSAGGSMKVEPLPHPDRPVTVETTPDSITVTDPANPPATTTFSSSSTVSVDSSAGGSAGGSAGGS [r4_321_JUSTAS] , folding stability dG unfold observed: -0.505

---

experiment.notes: folding stability dG unfold (combined trypsin and chymotrypsin); higher = more stable
measured.parameter: folding stability dG unfold (kcal/mol)
Report as a plain number; the unit kcal/mol is understood.

Example entries and their recorded answers appear below.
chain: SAGGSAGGSAGGRTIHINGATPERIIKWLKEWPPDEPVEIHYHGPNNKHREIPIDELKKSAGGSAGGSAGGS [r10_732_TrROS]
val: -0.669
//
chain: SAGGSSMLSPSESLPLPPDEDVEVSLPSPLSAKLTYDPATGTVSVTVTDPNNPGVPLSSTTRPLTASAGGSA [r2_266_JUSTAS]
val: -0.203
//
chain: SAGGSAGGSAGAAPDETTVTTTVTPSPGTTTVTTTTYTYAPPTNTVTSTTTTTTIPAGTASAGGSAGGSAGG [r11_237_JUSTAS]
val: 0.127
//
chain: SMPKVVKTVKITKSEAKEFLEKLDIGPDKSVTILETDPNGKSSLHTIGPNKILSSEPVDTLPNTWTIEISSA [r9_849_JUSTAS]
val: -0.416
//
chain: SAGGSAGGSAKITITAPPGETYRIKVKVKNENGEWKEVTRTIKVGEPLEDIEEVEIERIEPESAGGSAGGSA [r18_223_TrROS_Hall]
val: -0.146

sequence SAGGSAGGSAGGSMIVDTKVPENSVAYTPDGKKIGPEEVKKALEEGLGYIGSTPVPPGLSAGGSAGGSAGGS [r4_47_JUSTAS] , folding stability dG unfold observed: -0.835

sequence SAGGSANTIMIPFDDLTPDKILEAAEESPDPIMIHNPDNGRFLTVEVEDGGIDDVTWEPFDPEDFGSAGGSA [r15_751_TrROS] , folding stability dG unfold observed: -0.135

---

experiment.notes: folding stability dG unfold from trypsin proteolysis; higher = more stable
Classes are defined on folding stability dG unfold with ranges low bracket (below -0.5 kcal/mol), middle bracket (-0.5 kcal/mol to below 0.1 kcal/mol), high bracket (0.1 kcal/mol or more)

// below: answered sequences
chain: SAGGSAGGSAGGGENVTTEEKVLEVSYDPSKNSYSTLVKVTVKYPNGTTEEFEVVEEKLSAGGSAGGSAGGS [r10_1214_JUSTAS]
category.label: high bracket

chain: SAGGSAGGSAGGSIEIDVNPEAGQLKIEIEMPMPNPNGKPRGPMRMEQEFRIDDPEDIKSAGGSAGGSAGGS [r4_10_TrROS]
category.label: low bracket

chain: SAGGSAGGSAGPKPEYIRIKIEMWNPDGNPREHDFTFPPGHKDQIENLADNYGFRVSIEKSAGGSAGGSAGG [r11_603_TrROS]
category.label: high bracket

chain: SGPDVPLTPEEVAARIKAELLEKHPIGEVTPVELREFPELGVVEVRLRINVKGPPGETREIDVRLSRERLSA [r9_1002_JUSTAS]
category.label: high bracket

Note: attention shifts to another entry.
// bin(item) where item = SMPVTFTMKTPENRKKLEEAIKEIEEEYPIKVEEVEKDPKGTYTYKVEMDPEIIEKVKKKLEEAGNVTLESA [r9_472_JUSTAS] middle bracket

---

experiment.notes: folding stability dG unfold (combined trypsin and chymotrypsin); higher = more stable
Quick reference: folding stability dG unfold of the listed items.

chain: SAGGSMIEVEIENPDPSVSPEEIAERVIRELTPDGGPLQPLEIKPTLVGDKPVYKIKIYIPDPELIKESAGG [r13_979_JUSTAS]
folding stability dG unfold: < -4.18 kJ/mol

sequence SAGGTPIGDGQTGESSTFDEEVTDPVTGEKVKVKVTIPVTIDPETGKTVRTVTITNPLEGKTTTTLTLSAGG [r13_262_JUSTAS] , folding stability dG unfold observed: < -4.18 kJ/mol

sequence SAGGSAGGSAGGSGSMVVEKVSPEPNVTKTIFFEPPEEGLVITVETLEGDTWSSQIILQSAGGSAGGSAGGS [r4_484_JUSTAS] , folding stability dG unfold observed: -0.054 kJ/mol

sequence SAGGSAGGSAGGSDELLKELAQENGMKVTAEPMPEEGHFNIEVQSPNGKPIEIEIPLDDSAGGSAGGSAGGS [r4_121_TrROS] , folding stability dG unfold observed: -0.233 kJ/mol

sequence SAGGSALIVLEGDLDSVVALAKEAGDPNVKVEPVADFNDDPSEPRLYRITIERDGEPDGELLFLDPSAGGSA [r15_428_TrMRF] , folding stability dG unfold observed: < -4.18 kJ/mol

sequence SAGGSAGGSAGGEESRRVTVTETVYPVYPGVGIIRVTRTVTTPDATTTSTTLVFVPPGLPSAGGSAGGSAGG [r17_465_JUSTAS] , folding stability dG unfold observed: < -4.18 kJ/mol

sequence SAKPIPAKDITINMHPPPGGNFNFEIELDDKEIGEHPFKSPEDMQEGMKEIAKELAALLGPDDIKIKPWSAG [r14_791_TrROS] , folding stability dG unfold observed: -0.0674 kJ/mol

---

experiment.notes: folding stability dG unfold from trypsin proteolysis; higher = more stable
measured.parameter: folding stability dG unfold (kcal/mol)
Report as a plain number; the unit kcal/mol is understood.

chain: SAGMKELVLVERDAPVLGVYLDPETGRPRLEPRPVPVVVVVEVEPDSEAARELAEKLAPEDVRVEVLPASAG [r5_468_TrMRF]
display.unit: kcal/mol
folding stability dG unfold: 0.164

chain: SARPLTIMNPDGMMYRLDPDEGEIEFQNASDGEELKIKVKPKGNGVEIDIEFNGQPHEHKIPKGDWIMIPSA [r9_239_TrROS]
display.unit: kcal/mol
folding stability dG unfold: 0.662

chain: SAGGSAGGSAGGSALDRPVPVLVTGSIPLDGKFEDALGAAKAIEEEFAPYGYIVLSDVHVSAGGSAGGSAGG [r17_197_TrMRF]
display.unit: kcal/mol
folding stability dG unfold: 0.297

chain: SAGGSAGGSAMPIPALVLVERPLPDGETEEREIPVIVEPDKIDEIIEEAEKEGYKVKEVKASAGGSAGGSAG [r3_453_TrMRF]
display.unit: kcal/mol
folding stability dG unfold: -0.271

chain: SAGGSAGGSAGGSMIVDTKVPENSVAYTPDGKKIGPEEVKKALEEGLGYIGSTPVPPGLSAGGSAGGSAGGS [r4_47_JUSTAS]
display.unit: kcal/mol
folding stability dG unfold: 0.127

sequence SAGGSMPITVSVPVPPDVPLEEVAERIEKELREAGIEADVREVTRVPGEGRILLHFDAGKTGVIPASAGGSA [r2_242_JUSTAS] , folding stability dG unfold observed: -0.251

sequence SAGGSAGGMSPDVEVVTVERVITTTEPVSPSLSPEYLKAYPNATKTTTTVTVTVVPKERFEELTSAGGSAGG [r6_831_JUSTAS] , folding stability dG unfold observed: -1.44
